System: Botrtyis cinerea (Bc)
procedure.text: In vitro pathogen growth inhibition assay, Bc
Type: cell-based
protocol.conditions: 48 h, ≥90% growth inhibition; 48 hours; vs 2% DMSO control; read-out: Compound Concentration (ppm) sufficient for ≥90% inhibition of Bc
# key: entry, value: IC90
Please respond with the number in µg/mL and leave the unit unwritten.

These recorded examples may help you get a feel for the data.
[
  {
    "compound": "CCOC(=O)c1sc2c(c1C)c(=O)n(C(C)(C)C(=O)NC(C)C)c(=O)n2C[C@H](OCC(C)(C)C#N)c1cc(F)ccc1OC [Compound I-321]",
    "IC90 (µg/mL)": 0.4
  },
  {
    "compound": "CCOC(=O)c1sc2c(c1C)c(=O)n(C(C)(C)C(=O)N1CCCCC1)c(=O)n2C[C@H](OC1CCOCC1)c1ccccc1OC [Compound I-168]",
    "IC90 (µg/mL)": 0.4
  },
  {
    "compound": "CCNC(=O)C(C)(C)n1c(=O)c2c(C)c(-c3ncco3)sc2n(C[C@H](OC2CCOCC2)c2ccccc2OC)c1=O [Compound I-169]",
    "IC90 (µg/mL)": 10
  },
  {
    "compound": "COCCO[C@@H](Cn1c(=O)n(C(C)(C)C(=O)N2CCCC2)c(=O)c2c(C)c(-n3nccn3)sc21)c1cc(F)ccc1OC [Compound I-164]",
    "IC90 (µg/mL)": 50
  },
  {
    "compound": "COc1ccccc1[C@H](Cn1c(=O)n(C(C)(C)C(=O)NC(C)C)c(=O)c2c(C)c(-n3nccn3)sc21)OCCC(=O)NO [Compound I-266]",
    "IC90 (µg/mL)": 2
  }
]

Prompt: Hello, I am looking for reported IC90 with Botrtyis cinerea (Bc) for CCNC(=O)C(C)(C)n1c(=O)c2c(C)c(-n3nccn3)sc2n(C[C@H](OCCC#N)c2ccccc2OC)c1=O [Compound I-208] . Could you help?
Completion: 0.4
